Reported Index 1 (Relative Migration divided by the Average 157.5), HUVEC migration assay values for a set of binders
- assay target: c-Met protein receptors on HUVEC (human, UniProt P08581 25-1390)
- Sequence (P08581 25-1390): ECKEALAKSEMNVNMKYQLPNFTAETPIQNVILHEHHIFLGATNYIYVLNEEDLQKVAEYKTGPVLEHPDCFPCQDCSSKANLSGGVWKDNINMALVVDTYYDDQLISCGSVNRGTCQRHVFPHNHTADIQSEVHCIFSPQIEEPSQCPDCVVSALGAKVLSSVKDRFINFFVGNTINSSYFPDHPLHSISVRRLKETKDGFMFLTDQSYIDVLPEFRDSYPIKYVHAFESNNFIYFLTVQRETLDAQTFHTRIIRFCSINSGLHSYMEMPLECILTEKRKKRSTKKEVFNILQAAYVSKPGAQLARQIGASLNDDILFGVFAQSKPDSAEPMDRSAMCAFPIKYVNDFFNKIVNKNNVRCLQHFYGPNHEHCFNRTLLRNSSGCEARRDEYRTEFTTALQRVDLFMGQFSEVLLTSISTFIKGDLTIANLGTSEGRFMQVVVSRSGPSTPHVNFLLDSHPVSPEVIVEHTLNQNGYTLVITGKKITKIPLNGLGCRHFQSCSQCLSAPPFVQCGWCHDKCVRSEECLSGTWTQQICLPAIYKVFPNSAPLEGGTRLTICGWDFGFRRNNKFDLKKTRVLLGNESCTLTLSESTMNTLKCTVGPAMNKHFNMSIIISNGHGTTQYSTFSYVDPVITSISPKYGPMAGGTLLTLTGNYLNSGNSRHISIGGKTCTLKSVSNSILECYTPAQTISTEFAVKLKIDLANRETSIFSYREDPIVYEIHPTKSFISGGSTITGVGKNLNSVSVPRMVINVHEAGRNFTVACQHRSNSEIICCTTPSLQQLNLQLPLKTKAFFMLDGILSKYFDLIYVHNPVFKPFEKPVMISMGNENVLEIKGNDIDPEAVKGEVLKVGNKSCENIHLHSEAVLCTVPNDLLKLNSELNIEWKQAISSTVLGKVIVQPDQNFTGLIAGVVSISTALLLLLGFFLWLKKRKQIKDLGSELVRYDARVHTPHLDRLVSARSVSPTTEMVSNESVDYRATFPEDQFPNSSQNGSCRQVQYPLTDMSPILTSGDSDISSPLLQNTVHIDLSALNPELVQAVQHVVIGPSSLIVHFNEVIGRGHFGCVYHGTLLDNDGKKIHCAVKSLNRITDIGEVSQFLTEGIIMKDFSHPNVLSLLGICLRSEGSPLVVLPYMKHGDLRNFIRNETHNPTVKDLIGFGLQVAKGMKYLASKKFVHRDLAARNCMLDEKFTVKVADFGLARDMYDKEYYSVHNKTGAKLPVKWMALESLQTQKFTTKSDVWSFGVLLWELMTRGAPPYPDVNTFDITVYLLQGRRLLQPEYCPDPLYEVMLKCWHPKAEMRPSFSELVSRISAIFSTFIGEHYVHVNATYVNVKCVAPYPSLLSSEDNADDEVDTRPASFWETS
- measurement protocol: cell-based or functional assay
Output spec: single numeric token, no unit.

These solved cases illustrate the format of a correct answer.
binder	meas value
VH5/Vk2 (antibody, IgG1, V domains shown, Full IgG1/kappa expressed in HEK 293 EBNA cells) VH: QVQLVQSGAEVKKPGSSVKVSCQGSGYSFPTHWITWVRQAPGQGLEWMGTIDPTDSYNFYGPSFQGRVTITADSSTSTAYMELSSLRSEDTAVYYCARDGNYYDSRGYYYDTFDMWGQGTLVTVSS VL: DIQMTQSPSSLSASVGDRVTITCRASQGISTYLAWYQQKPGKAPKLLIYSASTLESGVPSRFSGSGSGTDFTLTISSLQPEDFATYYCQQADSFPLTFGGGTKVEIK	1.12
VH5/Vk0 (antibody, IgG1, V domains shown, Full IgG1/kappa expressed in HEK 293 EBNA cells) VH: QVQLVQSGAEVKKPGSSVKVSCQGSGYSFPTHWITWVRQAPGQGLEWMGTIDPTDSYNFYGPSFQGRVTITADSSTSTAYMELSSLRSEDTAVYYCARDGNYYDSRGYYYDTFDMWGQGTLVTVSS VL: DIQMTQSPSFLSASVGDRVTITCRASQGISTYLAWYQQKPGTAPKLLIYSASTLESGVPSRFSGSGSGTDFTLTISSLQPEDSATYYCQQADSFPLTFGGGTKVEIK	0.813

# next binder below
What Index 1 (Relative Migration divided by the Average 157.5), HUVEC migration assay value was documented for this binder, VH0/Vk2 (antibody, IgG1, V domains shown, Full IgG1/kappa expressed in HEK 293 EBNA cells) VH: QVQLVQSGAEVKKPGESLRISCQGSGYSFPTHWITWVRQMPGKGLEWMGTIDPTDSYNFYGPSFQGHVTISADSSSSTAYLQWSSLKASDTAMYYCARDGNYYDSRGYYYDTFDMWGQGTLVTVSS VL: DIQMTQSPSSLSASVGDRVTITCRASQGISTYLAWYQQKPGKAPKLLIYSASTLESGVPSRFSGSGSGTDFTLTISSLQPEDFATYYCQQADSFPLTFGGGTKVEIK ?
1.03
